Origin of measurements: patent US20070077283A1

Parameter: Mean TER Reduction 1 hr. Post-treatment. Scope: all listed entries.
Tested on: human-derived tracheal/bronchial epithelial cells (EpiAirway Tissue Model)
Experiment: Transepithelial electrical resistance (TER) of an epithelial cell monolayer
Type: cell-based
Conditions: lipid 125 μM
Please give a number only; it is taken to be in %.

Worked cases, Mean TER Reduction 1 hr. Post-treatment given:
Data request: Requested read-out: Mean TER Reduction 1 hr. Post-treatment. Entry: `CCCCCCCCCCCCC/C=C/[C@@H](O)[C@@H](N)CO[C@@H]1O[C@H](CO)[C@H](O)[C@H](O)[C@H]1O`
Data returned: 36

Data request: Bench note: what Mean TER Reduction 1 hr. Post-treatment did `CCCCCCCCCCCCCCCC(=O)OC[C@H](COP(=O)([O-])OCC[N+](C)(C)C)OC(=O)CCCC(=O)O` show?
Data returned: 28

Data request: May I ask what Mean TER Reduction 1 hr. Post-treatment has been recorded for CCCCCCCCCCCCC/C=C/[C@@H](O)[C@H](COP(=O)(O)O)NC(C)=O.N [N-acetoyl ceramide-1-phosphate] ?
Data returned: 24

Data request: What does the data say about its Mean TER Reduction 1 hr. Post-treatment? Entry: `CCCCCCCCCCCCCCCC(=O)OC[C@H](COP(=O)([O-])OCC[N+](C)(C)C)OC(=O)CCCC=O`
Data returned: 32

Would you kindly look at the next entry?
Data request: # Mean TER Reduction 1 hr. Post-treatment lookup, item `CCCCCCCCCCCCCCCCOC[C@H](COP(=O)([O-])OCC[N+](C)(C)C)OC(=O)CCCCCCCC(=O)O`
Data returned: 76
